Assign protein stability index to each entry below.
B1: PTPRD (parent)
chain: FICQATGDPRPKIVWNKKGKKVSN

variants of: B1; assay: protein stability index of a GFP-peptide fusion (GPS, HEK-293T) (PSI 1-6); higher = more stable; settings: c terminus: a fixed tail appended;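 note: lentivirally expressed fusions sorted by FACS into six bins by GFP to DsRed ratio, PSI derived from sequencing read proportions per bin multiplied by bin number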
Numbers only.

// known answers, use as guide
{"constructSequence": "FICQATGIPRPKIVWNKKGKKVSN", "protein stability index": 2.33}
{"constructSequence": "FICQATGDPRPKIVWNKKGKKVKN", "protein stability index": 2.52}
{"constructSequence": "FICQATGAPRPKIVWNKKGKKVSN", "protein stability index": 2.04}
{"constructSequence": "FICQATGDPEPKIVWNKKGKKVSN", "protein stability index": 1.61}
{"constructSequence": "FICQALGDPRPKIVWNKKGKKVSN", "protein stability index": 1.47}

Respectfully, I request protein stability index for each entry included below.
1. FICQATGDPREKIVWNKKGKKVSN
2. FICQAGGDPRPKIVWNKKGKKVSN
3. FECQATGDPRPKIVWNKKGKKVSN
4. FICKATGDPRPKIVWNKKGKKVSN

Found:
2.88
2.18
4.52
2.42

Respectfully, I request protein stability index for each entry included below.
1. FICQATGDPRPKIVWNKKGKKVSM
2. FIKQATGDPRPKIVWNKKGKKVSN

Found:
1.4
2.57
